The following molecules are listed with their measured MIC values.
- System: Moraxella catarrhalis
- Assay Name: Antibacterial activity against Moraxella catarrhalis BC-3531
- Type: functional
Readout Kind: MIC (µg/mL)

[
  {
    "Molecule": "CC1COc2c(N3CC[C@@H]([C@H](C)NCCC#N)C3)c(F)cc3c(=O)c(C(=O)O)cn1c23 (some centres not stated)",
    "Reported Value": 0.125
  },
  {
    "Molecule": "CC1COc2c(N3CC[C@@H]([C@H](C)N)C3)c(F)cc3c(=O)c(C(=O)O)cn1c23 (some centres not stated)",
    "Reported Value": 0.06
  },
  {
    "Molecule": "COc1c(N2CC[C@@H](CN)C2)c(F)cc2c(=O)c(C(=O)O)cn(C3CC3)c12",
    "Reported Value": 0.125
  },
  {
    "Molecule": "CN[C@@H](CC#N)[C@@H]1CCN(c2c(F)cc3c(=O)c(C(=O)O)cn(C4CC4)c3c2OC)C1",
    "Reported Value": 0.06
  },
  {
    "Molecule": "COc1c(N2CC[C@@H](CN)C2)ccc2c(=O)c(C(=O)O)cn(C3CC3)c12",
    "Reported Value": 0.5
  },
  {
    "Molecule": "COc1c(N2CC[C@@H]([C@H](C)NCCC#N)C2)ccc2c(=O)c(C(=O)O)cn(C3CC3)c12",
    "Reported Value": 1
  },
  {
    "Molecule": "Cc1c(N2CC(C)(CNCCC#N)C2)c(F)cc2c(=O)c(C(=O)O)cn(C3CC3)c12",
    "Reported Value": 0.125
  }
]
